Test system: Amaranthus retroflexus (AMARE)
Test: Herbicidal pre-emergence action
Type: in vivo
Settings: 1280 g/ha; scored visually after about 3 weeks vs untreated controls; 100% = plants have died, 0% = like control plants
ATTRIBUTE_MEASURED: Pre-emergence action against Amaranthus retroflexus (AMARE) (%)
Express it in %; write the number only.

Look over these answered cases.
Cc1cc(Oc2ncc(Cl)cn2)c(Sc2ccc(C#N)cc2)c(C)n1    100
Cc1cc(Oc2ncc(Cl)cn2)c(Sc2ccc(F)c(F)c2)c(C)n1    100
Cc1nccc(Oc2ncc(F)cn2)c1Oc1ncc(F)cn1    100
Cc1cc(Oc2ncc(Cl)cn2)c(Sc2ccc(F)cc2)c(C)n1    100

Moving on to another compound below.
Record request: Pre-emergence action against Amaranthus retroflexus (AMARE) value, item `Cc1cc(Oc2ncc(Cl)cn2)c(Sc2cccc(C(F)(F)F)c2)c(C)n1`
90
